Tested on: PC-3 prostate
test-name: NCI tumour cell line growth inhibition, 48 h; in the data active = GI50 below about 0.43 µM; inactive = the rest
Outcome (select one): TRUE = active, FALSE = inactive

Recorded test call requested for CCN1CCN(CCNc2nccc(-c3c(-c4ccc(F)c(O)c4)nc4occn34)n2)S1(=O)=O FALSE

---

A collection of compounds and their measured GI50
System: OVCAR-5 ovarian
test-name: NCI tumour cell line growth inhibition, 48 h

Below are worked cases with known answers.
compound | target-system | reported
COC(=O)/C=C1/SC(=Nc2cccc(Cl)c2)N(CCc2c[nH]c3ccc(O)cc23)C1=O | OVCAR-5 ovarian | 1.92 µM
COc1ccc2c(c1)c(-c1nc(-c3cn(C)c4ccncc34)cs1)cn2C | OVCAR-5 ovarian | 1.81 µM
COc1cc(CCC[P+](c2ccccc2)(c2ccccc2)c2ccccc2)c(OC)c2c1OCO2 | OVCAR-5 ovarian | 2.38 µM
COc1ccccc1C#Cc1ccccc1C#Cc1ccc(OCCCCCCOc2ccccc2C#Cc2ccccc2C#Cc2ccccc2OC)cc1 | OVCAR-5 ovarian | > 100 µM

Note: attention shifts to another entry.
// GI50 lookup, key: Cc1ccc2c(C(C[N+](=O)[O-])c3ccccc3)c(-c3ccccc3)[nH]c2c1 (stereo not given) 85.3 µM
